Test system: Fibroblast
Test: Multiplex assay against human fibroblast
Type: toxicity, cell-based
Settings: 24 h, 10 µM, compound concentration 10 uM, replicate 2
Measured Endpoint: Population Normal (%)

                                   compound      measured_endpoint  recorded_value
0  C[C@@H](NCCCc1cccc(C(F)(F)F)c1)c1cccc2ccccc12.Cl [CINACALCET HYDROCHLORIDE]  Population Normal (%)              75
1  Cc1[nH]c(/C=C2\C(=O)Nc3ccc(S(=O)(=O)N(C)c4cccc(Cl)c4)cc32)c(C)c1C(=O)N1CCN(C)CC1  Population Normal (%)              91
2  Cl.N#Cc1ccc2[nH]cc(CCCCN3CCN(c4ccc5oc(C(N)=O)cc5c4)CC3)c2c1 [VILAZODONE HYDROCHLORIDE]  Population Normal (%)              81
3  Cc1nc(-c2cn3c(n2)-c2ccc(-c4cnn(C(C)(C)C(N)=O)c4)cc2OCC3)n(C(C)C)n1  Population Normal (%)              77
4  COc1ncc(-c2ccc3nccc(-c4ccnnc4)c3c2)cc1NS(=O)(=O)c1ccc(F)cc1F  Population Normal (%)              88
5  COc1cc(-n2cnc3cc(-c4ccc(Cl)cc4)sc3c2=O)ccc1OCCN1CCCC1  Population Normal (%)              85
6  Cc1nc(-c2ccc(-c3ccc(C(=O)N4CCc5cc6c(cc54)C4(CCN(C)CC4)CO6)cc3)c(C)c2)no1  Population Normal (%)              88
7  c1cn2cc(-c3ccc4cn[nH]c4c3)nc(Nc3ccc(N4CCOCC4)cc3)c2n1  Population Normal (%)              73

---

Tested on: U2OS
Assay: Multiplex assay against U2OS
Format: toxicity, cell-based
Conditions: human, 24 h, 10 µM, compound concentration 10 uM, replicate 2
Decision: Population Normal (%) >= 90% yields 1, all other cases yield 0.

In [3]: df
Out[3]:
                                   compound  answer_label
0  COc1cc(-n2cnc3cc(-c4ccc(Cl)cc4)sc3c2=O)ccc1OCCN1CCCC1             0
1  C[C@@H](NCCCc1cccc(C(F)(F)F)c1)c1cccc2ccccc12.Cl [CINACALCET HYDROCHLORIDE]             0
2  Cc1c(-c2ccc(O)cc2)n(Cc2ccc(OCCN3CCCCCC3)cc2)c2ccc(O)cc12             0
3  Cc1csc2c(N[C@@H](C)CN3CCN(S(=O)(=O)c4ccc(Cl)c(Cl)c4)CC3)ncnc12             1
4  Cc1nc(Nc2n[nH]c3c2CN(C(=O)N[C@H](CN(C)C)c2ccccc2)C3(C)C)c2sccc2n1             0
5  CN1CCC[C@@H]1CCO[C@](C)(c1ccccc1)c1ccc(Cl)cc1.O=C(O)/C=C/C(=O)O [CLEMASTINE FUMARATE]             0
6  COc1cc2nccc(Oc3ccc(NC(=O)Nc4cc(C)on4)c(Cl)c3)c2cc1OC.O             1
7  CN(C)C(=O)/C(C#N)=C/c1ccc(-c2nc3cnc4[nH]ccc4c3n2C2CCCCC2)o1             0
8  Cn1c(-c2csc(C3CCN(CC4=NC5N=CC=CC5N4)CC3)n2)nc2ccccc21 (stereo unspecified)             0

meta.source: ChEMBL document CHEMBL4689842
